B1: TPR t1 (parent)
chain: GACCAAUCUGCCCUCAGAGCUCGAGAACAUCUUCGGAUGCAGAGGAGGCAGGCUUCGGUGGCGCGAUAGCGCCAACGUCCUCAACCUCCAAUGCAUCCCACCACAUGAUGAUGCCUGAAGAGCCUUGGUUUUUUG

# Variants of: B1
# Protocol Details: polymerase ribozyme fitness, log enrichment relative to wild type (log ratio); higher = more active; in vitro selection for triplet polymerase activity
Property Label: polymerase ribozyme fitness (log ratio)
Give your answer as a number; write no unit.

Known polymerase ribozyme fitness (log ratio) results, listed for orientation:
{"columns": ["Variant Description", "Measured Number"],
 "data": [
  ["C4A C72G G77A G120A", -1.74],
  ["U78C C94G A108G C114G U130G", -5.42],
  ["A18U G57U C88U C101G", -6.08]
]}

Dear colleague, I am looking for the recorded polymerase ribozyme fitness (log ratio) of the following variant: A84C C124A
1.76

C79A U112C G127A ?
-1.43

Same thing, different variant: C13A C123G
-0.0402

Subsequent entry: G63U C99U
-4.73

Please answer likewise for G69C C115U
-1.75

For A5U G57A then?
-0.568

Can you check C8G U30C next?
-2.51
